biological target: Mitogen-activated protein kinase 7 (Homo sapiens) (UniProt Q13164); assay: ERK5 transactivation activators in reporter cells, primary screen, cell-based, HTS (AID 1508626); settings: HeLa Gal4-ERK5 transactivation, 18 h, at 5 µM;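 further: luciferase driven by Gal4-ERK5 fusion binding five Gal4 sites before minimal TATA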
Sequence (Q13164 whole entry, looked up, the tested form may be a part): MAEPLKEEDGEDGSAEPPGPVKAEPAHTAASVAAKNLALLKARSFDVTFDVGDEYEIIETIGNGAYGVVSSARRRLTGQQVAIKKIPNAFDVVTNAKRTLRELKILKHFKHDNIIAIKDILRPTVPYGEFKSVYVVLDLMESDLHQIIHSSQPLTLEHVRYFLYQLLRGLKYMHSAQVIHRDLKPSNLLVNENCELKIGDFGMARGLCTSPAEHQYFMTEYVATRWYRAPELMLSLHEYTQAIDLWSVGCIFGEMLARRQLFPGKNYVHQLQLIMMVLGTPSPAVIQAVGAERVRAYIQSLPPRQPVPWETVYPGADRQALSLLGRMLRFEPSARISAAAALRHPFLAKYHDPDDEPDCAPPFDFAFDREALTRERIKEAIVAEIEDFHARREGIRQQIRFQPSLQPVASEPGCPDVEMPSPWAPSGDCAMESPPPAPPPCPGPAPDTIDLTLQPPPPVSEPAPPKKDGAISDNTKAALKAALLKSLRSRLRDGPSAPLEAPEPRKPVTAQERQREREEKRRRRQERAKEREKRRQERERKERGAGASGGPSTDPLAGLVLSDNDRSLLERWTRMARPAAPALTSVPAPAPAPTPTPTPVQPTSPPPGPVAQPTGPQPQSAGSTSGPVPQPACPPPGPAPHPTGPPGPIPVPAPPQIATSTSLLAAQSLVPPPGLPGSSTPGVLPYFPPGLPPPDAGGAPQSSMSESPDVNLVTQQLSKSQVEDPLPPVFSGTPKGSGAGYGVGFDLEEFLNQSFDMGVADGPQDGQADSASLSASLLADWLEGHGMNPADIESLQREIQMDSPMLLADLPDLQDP
Active and inactive are the calls of the source.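 How the source made its calls: active means luciferase signal above three times the same-plate solvent-only control wells; inactive means the rest.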
Labels: true (1) (active), false (0) (inactive)

[
  {
    "compound": "COc1cc(CNC(=O)CCCC/C=C/C(C)C)ccc1O",
    "answer label": "false (0)"
  },
  {
    "compound": "NC(=O)CC[C@H](N)C(=O)O",
    "answer label": "false (0)"
  },
  {
    "compound": "O=C(Nc1ccc(C(=O)O)c(O)c1)c1ccccc1",
    "answer label": "false (0)"
  },
  {
    "compound": "C#C[C@]1(O)CC[C@H]2[C@@H]3CCC4=CC(=O)CC[C@@H]4[C@H]3CC[C@@]21C",
    "answer label": "false (0)"
  },
  {
    "compound": "CN1CCCC1c1cccnc1 (stereo unspecified)",
    "answer label": "false (0)"
  },
  {
    "compound": "COc1cc(O)c(C)c(O)c1",
    "answer label": "false (0)"
  },
  {
    "compound": "C=CC(C1=CC(=O)C(OC)=CC1=O)c1ccc(O)cc1 (stereo unspecified)",
    "answer label": "false (0)"
  },
  {
    "compound": "COc1cccc2c1C(=O)c1c(O)c3c(c(O)c1C2=O)C[C@@](O)(C(C)=O)C[C@@H]3O[C@H]1C[C@H](N)[C@H](O)[C@H](C)O1",
    "answer label": "true (1)"
  },
  {
    "compound": "CC(C)CCC[C@@H](C)[C@H]1CC[C@H]2[C@@H]3CC=C4C[C@@H](O)CC[C@]4(C)[C@H]3CC[C@]12C",
    "answer label": "false (0)"
  },
  {
    "compound": "CC(=O)N1CCC[C@H]1C(=O)O",
    "answer label": "false (0)"
  },
  {
    "compound": "CC[C@H](C)C(=O)O[C@H]1CCC=C2C=C[C@H](C)[C@H](CC[C@@H]3C[C@@H](O)CC(=O)O3)[C@H]21",
    "answer label": "false (0)"
  }
]
